The measured values listed here are drawn from patent US20240132589A1.

target: T1, LILRB2-Fc protein (human, UniProt Q8N423 22-460, limits assumed); test: blocking ELISA, LILRB2-Fc binding to coated monomer HLA-G; Exp I
T1 construct: also called human LILRB2-Fc; not shown: Fc part
T1 sequence (Q8N423 22-460 limits assumed): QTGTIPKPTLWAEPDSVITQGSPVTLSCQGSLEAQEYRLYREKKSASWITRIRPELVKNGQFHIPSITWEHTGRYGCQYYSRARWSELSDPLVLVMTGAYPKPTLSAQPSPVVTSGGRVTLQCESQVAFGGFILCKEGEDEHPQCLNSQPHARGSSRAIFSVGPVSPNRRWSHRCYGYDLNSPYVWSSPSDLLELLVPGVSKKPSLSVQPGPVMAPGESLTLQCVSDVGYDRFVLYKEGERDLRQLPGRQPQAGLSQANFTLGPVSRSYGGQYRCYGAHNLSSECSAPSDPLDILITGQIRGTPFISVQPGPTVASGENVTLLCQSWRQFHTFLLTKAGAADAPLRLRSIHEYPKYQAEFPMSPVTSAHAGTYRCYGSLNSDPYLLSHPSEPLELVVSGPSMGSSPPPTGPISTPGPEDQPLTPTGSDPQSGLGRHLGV
Each entry below carries its recorded IC50.
Lab book: enter the figure in mg/L, no units written.

Which value of IC50 has been reported for B2H4-24 (antibody, V domains shown, Humanized variant, human IgG4 / kappa) VH: EVQLVESGGDLATPGGSLRLSCAVSGFSLSTYAMSWVRQAPGKGLEWVGWIYNDGSTYYAAWAKGRFTISKDTSKTTVYLQMTSLRAEDTALYFCAREGDYIGYFNIWGQGTLVTVSS VL: DIQMTQSPSSVSASVGDRVTITCQASQSIGSNLAWYQQKPGKAPKLLIYAAATLASGVPLRFSGSGSGTDFTLTISNLQPEDSATYYCQSYVSGSSDVAFGGGTKVEIK in the records?
7.01

New cases:
Which value of IC50 has been reported for B2H4-25 (antibody, V domains shown, Humanized variant, human IgG4 / kappa) VH: EVQLVESGGDLATPGGSLRLSCAVSGFSLSTYAMSWVRQAPGKGLEWVGWIYNDGSTYYAAWAKGRFTISKDTSKTTVYLQMTSLRAEDTALYFCAREGDYIGYFNIWGQGTLVTVSS VL: DVVMTQTPSSVSAALGGTVTIKCQASQSIGSNLAWYQLKPGQRPKLLIYAAATLASGGSSRFKGSGSGTDFTLTISSLEPADAATYYCQSYVSGSSDVAFGGGTEVVVK in the records?
7.64

// query: B2H4-55 (antibody, V domains shown, Humanized variant, human IgG4 / kappa) VH: EVQLLESGGGLVQPGTSLTLSCAASGFSLSTYAMSWVRQAPGKGLEWIGWIYNDGSTYYAAWAKGRFTISKDTSKTTLYLQITSLRAEDTATYFCAREGDYIGYFNIWGQGTLVTVSS VL: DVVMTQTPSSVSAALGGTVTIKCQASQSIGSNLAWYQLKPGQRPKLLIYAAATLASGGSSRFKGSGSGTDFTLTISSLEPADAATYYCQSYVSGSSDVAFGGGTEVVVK
6.89
